# Test system: CYPES: yellow nutsedge (Cyperus esculentus)
# protocol_description: Post-emergent herbicidal test, yellow nutsedge
# Type: in vivo
# assay_conditions: post-emergence, 336 h, 35 g ai/ha, 14 days after application, read-out: Visual Growth Reduction (%) 14 Days After Application CYPES
attribute_measured: pest or weed control at 35 g/ha

{"mol_smiles": "COC(=O)c1nc(-c2ccc(Cl)c3c2OC(F)(F)O3)c(Cl)c(N)c1Cl", "result": "0%"}
{"mol_smiles": "COC(=O)c1nc(-c2ccc(I)c3c2OC(F)(F)O3)c(F)c(N)c1Cl", "result": "0%"}
{"mol_smiles": "COC(=O)c1nc(-c2ccc(Cl)c3c2OCO3)c(F)c(N)c1Cl", "result": "83%"}
{"mol_smiles": "COC(=O)c1nc(-c2ccc(Br)c3c2OC(F)(F)O3)c(F)c(N)c1Cl", "result": "0%"}
{"mol_smiles": "COC(=O)c1nc(-c2cccc3c2OCO3)c(F)c(N)c1Cl", "result": "0%"}

This collection of values is drawn from patent US11718604B2.
